assay: qHTS Assay for Modulators of miRNAs and/or Inhibitors of miR-21; details: HeLa miR-21-FLuc reporter, luciferase luminescence, 48 h; actives lower the signal; note: potency is the fitted concentration of half-maximal effect; nearly all actives have a fitted effect of over 55% in size
Out of some 340,000 compounds screened, about 3,300 (0.97%) were called active. Roughly 9% stayed inconclusive and do not appear here. The list shows a part of the results.
METRIC: Potency

Prompt: Determine from records and report Potency for `COc1ccccc1-c1cnn2c(NC3CCCC3)cc(C)nc12`
Response: 5.85 µM (active)

Prompt: Determine from records and report Potency for `COc1ccc2c(c1)OC/C(=C/c1cccs1)C2=O`
Response: 5.85 µM (active)

Prompt: Determine from records and report Potency for `Nc1nc(-c2ccc(Cl)cc2)nnc1-c1ccc(Br)cc1`
Response: 2.07 µM (active)

Prompt: Determine from records and report Potency for `O=C(Nc1ccc2oc(-c3ccccc3Cl)nc2c1)c1ncn[nH]1`
Response: 0.927 µM (active)

Prompt: Determine from records and report Potency for `Nc1ccc(Nc2nc(-c3cc4ccccc4oc3=O)cs2)cc1`
Response: 2.93 µM (active)

Prompt: Determine from records and report Potency for `COc1ccc(NC(=O)Nc2ccccc2F)cc1Cl`
Response: 2.07 µM (active)

Prompt: Determine from records and report Potency for `O=C(O)c1cnn(-c2nc(-c3ccc(F)cc3)cs2)c1C(F)(F)F`
Response: 14.7 µM (active)

Prompt: Determine from records and report Potency for `CCc1ccc2[nH]c(C(=O)Nc3ccc(Br)c(C)n3)cc2c1`
Response: 1.65 µM (active)

Prompt: Determine from records and report Potency for COc1ccc(C2=NN(S(C)(=O)=O)C(c3cccs3)C2)cc1OC (centres undefined)
Response: 7.36 µM (active)

Prompt: Determine from records and report Potency for `COc1ccc(-c2cc(=Nc3ccc(C(=O)O)cc3)c3cc(C)ccc3o2)cc1`
Response: 2.07 µM (active)

Prompt: Determine from records and report Potency for `O=C(O)c1cnn(-c2nc(-c3ccc(Cl)cc3)cs2)c1C(F)(F)F`
Response: 13.1 µM (active)

Prompt: Determine from records and report Potency for `COc1ccc(C(=O)Nc2ccc(Cl)c(Cl)c2)c(OC)n1`
Response: 0.355 µM (active)

Prompt: Determine from records and report Potency for `COCCN1CCN(C(=O)c2cc(COc3cc(C)ccc3C)on2)CC1`
Response: 11.7 µM (active)

Prompt: Determine from records and report Potency for `CCOc1ccc(/C=N/NC(=O)c2ccoc2C)cc1OC`
Response: 7.36 µM (active)

====

assay: qHTS Assay for Modulators of miRNAs and/or Inhibitors of miR-21; conditions: HeLa miR-21-FLuc reporter, luciferase luminescence, 48 h; actives lower the signal; note: potency is the fitted concentration of half-maximal effect; nearly all actives have a fitted effect of over 55% in size
Screen size: about 340,000 compounds; about 3,300 (0.97%) were called active. Inconclusive results (about 9%) are left out. This is one part of the list.
Would you kindly list Potency for each of these compounds?

Prompt: Determine from records and report Potency for `Cc1nc2sc(-c3ccccc3)cc2c(=O)n1/N=C/N(C)C`
Response: 3.29 µM (active)

Prompt: Determine from records and report Potency for `CCCCN1CCc2c([nH]c3ccc(C)cc23)C1=O`
Response: 0.826 µM (active)

Prompt: Determine from records and report Potency for `N/C(=N\C(=S)Nc1ccccc1)c1ccccc1`
Response: 0.927 µM (active)

Prompt: Determine from records and report Potency for `CC(=O)c1cnc2nc(SCc3ccccc3)nn2c1C`
Response: 5.21 µM (active)

Prompt: Determine from records and report Potency for `CCn1cnc2cc(NCc3ccc(C)cc3)ccc21`
Response: 5.21 µM (active)

Prompt: Determine from records and report Potency for `CC(=O)/C(N=Nc1ccc2c(c1)OCO2)=C(\C)O`
Response: 6.56 µM (active)

Prompt: Determine from records and report Potency for `CSc1ccccc1NC(=O)c1cccc(S(=O)(=O)N2CCN(C)CC2)c1`
Response: 14.7 µM (active)

Prompt: Determine from records and report Potency for `Cc1[nH]c2ccccc2c1/C=N/Nc1cccc(C(=O)O)c1`
Response: 7.36 µM (active)

Prompt: Determine from records and report Potency for `COc1ccc(-c2nc(-c3cccnc3)no2)cc1`
Response: 0.826 µM (active)

Prompt: Determine from records and report Potency for `Fc1cccc(/C=N/Nc2ncnc3nc[nH]c23)c1`
Response: 1.65 µM (active)

Prompt: Determine from records and report Potency for `CCCC(=O)Nc1cc2nn(-c3ccccc3)nc2cc1C`
Response: 0.369 µM (active)

Prompt: Determine from records and report Potency for `COc1ccc(-n2cnc3cc(NCc4ccco4)ccc32)cc1`
Response: 14.7 µM (active)

Prompt: Determine from records and report Potency for CNC(C)C#Cc1ccc2c(=O)c3c(OC)cccc3oc2c1 (centres undefined)
Response: 3.69 µM (active)

Prompt: Determine from records and report Potency for `COc1ccc(-c2nc(-c3cccnc3)no2)cc1OC`
Response: 16.5 µM (active)

====

assay: qHTS Assay for Modulators of miRNAs and/or Inhibitors of miR-21; details: HeLa miR-21-FLuc reporter, luciferase luminescence, 48 h; actives lower the signal; note: potency is the fitted concentration of half-maximal effect; nearly all actives have a fitted effect of over 55% in size
Among all 340,000 compounds or so, about 3,300 (0.97%) were called active. Roughly 9% stayed inconclusive and do not appear here. The list shows a part of the results.
Would you kindly list Potency for each of these compounds?

Prompt: Determine from records and report Potency for `COCCCNC(=S)N/N=C/c1ccc(N(C)C)cc1Cl`
Response: 5.85 µM (active)

Prompt: Determine from records and report Potency for `Nc1c(C(=O)c2ccccc2)oc2ccc(Br)cc12`
Response: 2.61 µM (active)

Prompt: Determine from records and report Potency for `Cc1cc(C)c(C#N)c(SCC(=O)Nc2ccc3c(c2)OCO3)n1`
Response: 3.29 µM (active)

Prompt: Determine from records and report Potency for `C/C(=N/Nc1ccccc1C(=O)O)c1cccs1`
Response: 14.7 µM (active)

Prompt: Determine from records and report Potency for Cc1ccc(NC2Nc3cc(C)nn3S2)c(C)c1 (stereo not drawn)
Response: 6.56 µM (active)

Prompt: Determine from records and report Potency for `O=C(Nc1ccccc1-c1ccccc1)c1cnccn1`
Response: 13.1 µM (active)

Prompt: Determine from records and report Potency for `Cn1ncc2c(Nc3ccc4ccccc4c3)ncnc21`
Response: 4.65 µM (active)

Prompt: Determine from records and report Potency for `Cc1ccc(NC(=O)c2cnccn2)c(Br)c1`
Response: 5.85 µM (active)

Prompt: Determine from records and report Potency for `Cc1ccc(O)c(-c2cc(-c3cccc(Br)c3)n[nH]2)c1`
Response: 6.56 µM (active)

Prompt: Determine from records and report Potency for `Cc1nc2cc(NC(=O)Nc3cccc4ccccc34)ccc2n1C`
Response: 2.93 µM (active)

Prompt: Determine from records and report Potency for `O=C(Nc1ccccc1-c1ccccc1)c1ccc(=O)[nH]n1`
Response: 14.7 µM (active)

Prompt: Determine from records and report Potency for `CC(=O)OCC(=O)Nc1ccc(N=Nc2ccccc2)cc1`
Response: 1.31 µM (active)

Prompt: Determine from records and report Potency for `COc1ccc(/C=C/C=C2\NC(=S)NC2=O)cc1`
Response: 14.7 µM (active)

Prompt: Determine from records and report Potency for `O=C(CSCc1ccccc1)N=Nc1c(O)[nH]c2ccccc12`
Response: 16.5 µM (active)

Prompt: Determine from records and report Potency for `COc1cccc(C(=O)Nc2ccc3c(c2)OCO3)c1OC`
Response: 2.07 µM (active)

Prompt: Determine from records and report Potency for `Cc1ccc(NC(=O)Nc2ccc3c(c2)nc(C)n3C)cc1C`
Response: 1.17 µM (active)

Prompt: Determine from records and report Potency for `CCCCN1C(=O)/C(=C/C=C2\SCCN2C)SC1=S`
Response: 5.21 µM (active)

Prompt: Determine from records and report Potency for `COc1cc2ccccc2cc1C(=O)Nc1ccc(N2CCN(C)CC2)cc1`
Response: 7.36 µM (active)

====

assay: qHTS Assay for Modulators of miRNAs and/or Inhibitors of miR-21; details: HeLa miR-21-FLuc reporter, luciferase luminescence, 48 h; actives lower the signal; note: potency is the fitted concentration of half-maximal effect; nearly all actives have a fitted effect of over 55% in size
Hit rate of the full screen: of about 340,000 compounds, about 3,300 (0.97%) were called active. Roughly 9% stayed inconclusive and do not appear here. The list shows a part of the results.
METRIC: Potency

Prompt: Determine from records and report Potency for `CC(C)c1ccc(/C=N/Nc2ccc(C(=O)O)cc2)cc1`
Response: 0.0465 µM (active)

Prompt: Determine from records and report Potency for `Cc1nc2c(-c3ccc(F)cc3)cnn2c(N)c1-c1ccc(F)cc1`
Response: 0.414 µM (active)

Prompt: Determine from records and report Potency for `CC(=O)Nc1nc2ccc(NC(=O)c3ccco3)cc2s1`
Response: 10.4 µM (active)

Prompt: Determine from records and report Potency for `Clc1ccccc1/C=C/c1nc(-c2cccnc2)no1`
Response: 0.656 µM (active)

Prompt: Determine from records and report Potency for `O=C(NC(=S)Nc1ccc2ncccc2c1)c1ccccc1`
Response: 6.56 µM (active)

Prompt: Determine from records and report Potency for CC1=NN(C(N)=S)C(=O)C1N=Nc1cccc(Cl)c1 (centres undefined)
Response: 7.36 µM (active)

Prompt: Determine from records and report Potency for `O=[N+]([O-])c1ccc(Cc2nnc(-c3ccc(F)cc3)o2)cc1`
Response: 0.826 µM (active)

Prompt: Determine from records and report Potency for COc1ccccc1C(=O)NC1=NC(c2ccc(Br)cc2)CC(=O)N1 (centres undefined)
Response: 1.85 µM (active)

Prompt: Determine from records and report Potency for `CN(C)c1ccc(/C=C2\CCCCC2=O)cc1`
Response: 2.07 µM (active)

Prompt: Determine from records and report Potency for `Fc1ccc(-c2nnc(Cc3ccc(Cl)cc3)o2)cc1`
Response: 10.4 µM (active)

Prompt: Determine from records and report Potency for `Cc1csc(NC(=S)NC(=O)c2ccccc2)n1`
Response: 1.31 µM (active)

Prompt: Determine from records and report Potency for `CCOC(=O)c1cnn2c(C)cc(-c3ccc(F)cc3)nc12`
Response: 4.14 µM (active)

Prompt: Determine from records and report Potency for `Cc1cc2nc(-c3ccc(NC(=O)c4cc5ccccc5o4)cc3)oc2cc1C`
Response: 8.26 µM (active)

Prompt: Determine from records and report Potency for `COCc1cc(C)nc2sc(C(=O)Nc3cc(C)ccc3F)c(N)c12`
Response: 7.36 µM (active)
